Biological target: ATP-dependent translocase ABCB1 (Homo sapiens, UniProt P08183)
Sequence (P08183 whole entry): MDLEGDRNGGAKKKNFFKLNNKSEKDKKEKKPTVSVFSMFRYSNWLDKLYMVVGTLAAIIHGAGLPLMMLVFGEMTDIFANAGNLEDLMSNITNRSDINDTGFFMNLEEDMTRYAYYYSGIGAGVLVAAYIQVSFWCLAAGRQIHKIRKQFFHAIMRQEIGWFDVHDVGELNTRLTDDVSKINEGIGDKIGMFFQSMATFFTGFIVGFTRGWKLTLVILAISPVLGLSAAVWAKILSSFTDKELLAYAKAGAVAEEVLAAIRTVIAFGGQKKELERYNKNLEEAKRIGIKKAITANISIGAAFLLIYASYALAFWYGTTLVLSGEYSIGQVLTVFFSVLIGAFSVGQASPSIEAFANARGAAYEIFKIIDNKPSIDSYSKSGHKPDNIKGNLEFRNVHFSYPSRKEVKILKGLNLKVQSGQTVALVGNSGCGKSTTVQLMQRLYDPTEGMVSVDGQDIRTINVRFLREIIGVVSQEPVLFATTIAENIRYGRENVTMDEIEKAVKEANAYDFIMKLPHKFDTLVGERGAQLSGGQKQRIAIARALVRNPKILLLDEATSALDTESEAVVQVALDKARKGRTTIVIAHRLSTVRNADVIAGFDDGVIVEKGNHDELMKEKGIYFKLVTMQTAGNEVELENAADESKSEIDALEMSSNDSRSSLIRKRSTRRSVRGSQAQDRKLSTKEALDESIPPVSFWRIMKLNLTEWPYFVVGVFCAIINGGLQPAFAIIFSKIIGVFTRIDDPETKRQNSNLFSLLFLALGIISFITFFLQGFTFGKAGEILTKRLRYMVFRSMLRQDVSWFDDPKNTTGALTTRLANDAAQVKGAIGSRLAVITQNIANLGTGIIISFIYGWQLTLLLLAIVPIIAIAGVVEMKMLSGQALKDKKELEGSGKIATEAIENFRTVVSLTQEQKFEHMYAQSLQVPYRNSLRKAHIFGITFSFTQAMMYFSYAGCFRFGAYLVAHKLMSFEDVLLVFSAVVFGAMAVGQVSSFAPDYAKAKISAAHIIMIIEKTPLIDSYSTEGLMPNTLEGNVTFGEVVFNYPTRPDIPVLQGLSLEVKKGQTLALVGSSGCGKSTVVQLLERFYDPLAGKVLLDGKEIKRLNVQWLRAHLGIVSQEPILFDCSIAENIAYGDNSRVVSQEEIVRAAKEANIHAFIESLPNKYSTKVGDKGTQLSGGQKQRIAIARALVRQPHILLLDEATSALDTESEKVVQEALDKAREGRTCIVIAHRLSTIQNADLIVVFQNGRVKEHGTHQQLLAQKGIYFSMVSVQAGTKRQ
Assay: Inhibition of human ABCB1 expressed in mouse L5178Y cells assessed as potentiation of doxorubicin-induced cytotoxicity by measuring combination index at 2:5 doxorubicin to compound ratio after 48 hrs by MTT assay
Format: cell-based
Provide the recorded CI for the entries that follow.
Give bare numbers.

CC[C@@H]1CN(C)[C@H]2Cc3c([nH]c4ccccc34)[C@@H](O)C[C@H]1[C@@H]2C(=O)OC; 0.4

Record CI for all entries; do not skip any.
1. CC[C@H]1CN(C)[C@H]2Cc3c([nH]c4ccccc34)/C(=N/Nc3cnccn3)C[C@H]1[C@@H]2C(=O)OC
2. CC[C@H]1CN(C)[C@H]2Cc3c(n(C)c4ccccc34)C(=O)C[C@H]1[C@@H]2C(=O)OC
3. CC[C@@H]1CN(C)[C@H]2Cc3c([nH]c4ccccc34)/C(=N/Nc3cnccn3)C[C@H]1[C@@H]2C(=O)OC

output:
0.1
0.24
0.31

These measurements were taken from ChEMBL document CHEMBL4004848.
